Values were extracted from PubChem BioAssay AID2060501.

Tested on: 282377-053-R-J1-PDC complex spheroids, viability;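 also: spheroids exposed to compounds for 7 days before readout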
Experiment: Anticancer human tumor 282377-053-R-J1-PDC patient-derived colon adenocarcinoma cell line growth inhibition [GQUAD]; active = viability on the fitted dose curve at most 10% of control; inactive = the rest
Settings: second compound 1 µM; first compound 10 µM
Excerpt: DNA G-quadruplex Stabilizer Agents in Combinations in Complex Spheroids A high-throughput screen of multi-cell type tumor spheroids was designed to identify active combinations of DNA G-quadruplex stabilizer agents and targeted small molecules. […] Compounds. […] If the clinical Cmax for an agent had not been determined, the highest concentration tested was 10 microM. […]
Classes to choose from: TRUE = active, FALSE = inactive

Reference set (3 entries):
CC(C)(O)C1CCC(Nc2ccc3ncc(-c4cccc(C(F)(F)F)c4)n3n2)CC1 (stereo unspecified) + Cc1[nH]c2ccc(F)cc2c1-c1nc2c3cccnc3c3ncccc3c2[nH]1: FALSE
COc1cccc2c1C(=O)c1c(O)c3c(c(O)c1C2=O)CC(O)(C(=O)CO)CC3OC1CC(N)C(O)C(C)O1 (stereo unspecified) + CN(C)c1ccc(Nc2c3ccc(NC(=O)CCN4CCCC4)cc3nc3cc(NC(=O)CCN4CCCC4)ccc23)cc1: TRUE
O=C(c1cc(Cc2n[nH]c(=O)c3ccccc23)ccc1F)N1CCN(C(=O)C2CC2)CC1 + Cc1[nH]c2ccc(F)cc2c1-c1nc2c3cccnc3c3ncccc3c2[nH]1: FALSE

input: GET /call?item= Nc1ccn(C2OC(CO)C(O)C2(F)F)c(=O)n1 (stereo unspecified) + Cc1cnc(CNC(=O)c2c(=O)c3ccc(N4CCCN(C)CC4)nc3n3c2sc2ccccc23)cn1 returns the recorded outcome of this test.
output: FALSE

input: Please let me know the test result on file for O=c1[nH]cc(F)c(=O)[nH]1 + CN(C)c1ccc(Nc2c3ccc(NC(=O)CCN4CCCC4)cc3nc3cc(NC(=O)CCN4CCCC4)ccc23)cc1 .
output: FALSE

input: What is the recorded call for this compound in the test? Cc1cccc(N(C)C(=O)C2C(O)CCN2c2nc(C)cc(C(F)(F)F)c2C#N)c1 (stereo unspecified) + CN(C)c1ccc(Nc2c3ccc(NC(=O)CCN4CCCC4)cc3nc3cc(NC(=O)CCN4CCCC4)ccc23)cc1
output: FALSE

input: Look up the recorded call for C#Cc1c(F)ccc2cc(O)cc(-c3ncc4c(N5CC6CCC(C5)N6)nc(OCC56CCCN5CC(F)C6)nc4c3F)c12 (stereo unspecified) + Cc1[nH]c2ccc(F)cc2c1-c1nc2c3cccnc3c3ncccc3c2[nH]1 in this test.
output: TRUE

input: I'd appreciate the recorded outcome for CC(C)n1c(=O)n(C)c2cnc3cc(F)c(-c4ccc(OCCCN5CCCCC5)nc4)cc3c21 + Cc1cnc(CNC(=O)c2c(=O)c3ccc(N4CCCN(C)CC4)nc3n3c2sc2ccccc23)cn1 from this test.
output: FALSE

input: Hello, I am checking results. What call was entered for CC1COCCN1c1cc(C2(O)CC3CCC(C2)O3)c2cnn(-c3ccn[nH]3)c2n1 (stereo unspecified) + Cc1[nH]c2ccc(F)cc2c1-c1nc2c3cccnc3c3ncccc3c2[nH]1 ?
output: FALSE

input: What was the test verdict on O=C(NO)c1cnc(N2CCN(S(=O)(=O)c3ccc4ccccc4c3)CC2)nc1 + Cc1cnc(CNC(=O)c2c(=O)c3ccc(N4CCCN(C)CC4)nc3n3c2sc2ccccc23)cn1 ?
output: TRUE

input: Recorded call for O=C(NO)c1cnc(N2CCN(S(=O)(=O)c3ccc4ccccc4c3)CC2)nc1 + CN(C)c1ccc(Nc2c3ccc(NC(=O)CCN4CCCC4)cc3nc3cc(NC(=O)CCN4CCCC4)ccc23)cc1 ?
output: TRUE
